Test: clinical
Conditions: human, in vivo, 60 mg/kg
MEASURED PROPERTY: concentration at 2 h (ng/mL)
Just the number please, in ng/mL, no unit attached.

Task: For the compound shown here, O=C1O[C@H]([C@@H](O)CO)C(O)=C1O , give the reported concentration at 2 h.
Result: 101

----------
Test: clinical
Settings: human, plasma, 60 mg/kg
MEASURED PROPERTY: concentration at 1 h

Task: // concentration at 1 h lookup, key: O=C1O[C@H]([C@@H](O)CO)C(O)=C1O [ascorbic acid, 3-oxo-1-gulofuranolactone]
Result: ~42000 ng/mL

----------
Assay: clinical
Conditions: human, in vivo, 60 mg/kg
MEASURED PROPERTY: concentration at 24 h (ng/mL)
Write it as a number; the unit ng/mL goes unstated.

Task: Entry under review: O=C1O[C@H]([C@@H](O)CO)C(O)=C1O . Reported concentration at 24 h?
Result: 74

----------
Assay: clinical
Details: human, in vivo, 60 mg/kg
MEASURED PROPERTY: concentration at 8 h (ng/mL)
Numbers only; they are read as ng/mL.

Task: Given the entry O=C1O[C@H]([C@@H](O)CO)C(O)=C1O [ascorbic acid, 3-oxo-1-gulofuranolactone] , report its measured concentration at 8 h.
Result: 79

# credit: patent US5626883A
